test: Cmax in Sprague-Dawley CD rat at 3 mg/kg, po; assay type: ADME, organism-based; set-up: dose 3 mg/kg, route oral; conditions: in vivo
quantity: Cmax (ng/mL)

[I] O=c1[nH]c2ccccc2cc1O
[II] O=c1[nH]c2ccc(F)cc2cc1O
[III] O=c1[nH]c2cc(F)ccc2cc1O
Task: Which order do these items fall in when sorted by Cmax from largest to smallest? Arrange the labels as the request states and list them.
Result: III, II, I

###

molecular target: D-amino-acid oxidase (Rattus norvegicus, UniProt O35078); assay: Inhibition of rat recombinant DAAO expressed in sf9 insect cells assessed as degradation of D-serine by fluorescence assay
Sequence (O35078 whole entry): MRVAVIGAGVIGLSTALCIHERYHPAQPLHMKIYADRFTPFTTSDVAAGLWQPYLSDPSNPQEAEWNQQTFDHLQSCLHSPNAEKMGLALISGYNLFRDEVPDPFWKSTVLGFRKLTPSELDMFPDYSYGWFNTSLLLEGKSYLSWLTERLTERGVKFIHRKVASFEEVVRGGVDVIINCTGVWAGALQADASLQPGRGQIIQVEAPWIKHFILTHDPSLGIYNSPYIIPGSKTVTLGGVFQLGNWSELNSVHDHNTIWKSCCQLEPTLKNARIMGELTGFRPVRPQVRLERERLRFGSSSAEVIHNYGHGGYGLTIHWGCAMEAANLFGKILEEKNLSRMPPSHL
quantity: IC50 (nM)

[a] O=c1[nH]c2cccc(Cl)c2cc1O
[b] O=C(O)c1cc2occc2[nH]1
Task: Lab note: record which item had the higher IC50, a or b . Kindly state the label of the option you pick.
Result: b
(b: 424 nM, a: 40 nM)

All values here come from ChEMBL document CHEMBL1136932.
